System name: T1, Full length human CD40 (huCD40) on cells (human, UniProt P25942 21-277)
T1 construct: CD40 on human mature DCs, human B cells, Raji cells and HEK-Blue CD40L cells (stably expressing human CD40); also called TNFRSF5
T1 sequence (P25942 21-277): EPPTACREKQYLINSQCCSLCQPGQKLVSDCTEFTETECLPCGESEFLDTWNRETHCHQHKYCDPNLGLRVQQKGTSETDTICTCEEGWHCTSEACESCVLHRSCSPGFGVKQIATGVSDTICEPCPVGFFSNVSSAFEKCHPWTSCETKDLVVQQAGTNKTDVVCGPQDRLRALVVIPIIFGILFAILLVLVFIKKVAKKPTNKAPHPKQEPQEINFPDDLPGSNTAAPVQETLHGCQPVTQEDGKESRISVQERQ
Assay procedure: flow cytometry, HEK-Blue CD40L cells
EC50 values, listed per item
Answer with the figure and its unit, nothing else.

Example cases with answers are listed next.
Binder	EC50
C40M18 (antibody, human IgG1, lambda, V domains shown, Full-length IgG1/lambda; from OmniRat (OMT); VH C40H48, VL C40L64) VH: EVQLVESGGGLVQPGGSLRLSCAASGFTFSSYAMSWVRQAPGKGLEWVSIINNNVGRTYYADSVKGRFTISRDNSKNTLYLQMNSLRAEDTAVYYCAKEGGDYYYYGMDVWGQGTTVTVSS VL: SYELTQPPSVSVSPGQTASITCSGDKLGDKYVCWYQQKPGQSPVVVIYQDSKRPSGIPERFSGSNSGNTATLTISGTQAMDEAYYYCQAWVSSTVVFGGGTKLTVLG	0.15 mg/L
C40M105 (antibody, human IgG1, lambda, V domains shown) VH: QLQLQESGPGLVKPSETLSLTCTVSGGSISSSSYYWGWIRQPPGKGLEWIGNIYYRGDTYYSPSLKSRVTISVDTSKNQFSLKLSSVTAADTAVYYCARGFRFDYWGQGTLVTVSS VL: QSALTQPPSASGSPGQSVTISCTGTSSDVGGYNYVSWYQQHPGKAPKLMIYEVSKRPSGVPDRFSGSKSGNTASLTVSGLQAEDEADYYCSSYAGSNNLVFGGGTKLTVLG	2.16 mg/L
C40M104 (antibody, human IgG1, lambda, V domains shown, Variant of C40M18 (VH C40H48, VL C40L68; LCDR1 cysteine mutated); cloned as IgG1) VH: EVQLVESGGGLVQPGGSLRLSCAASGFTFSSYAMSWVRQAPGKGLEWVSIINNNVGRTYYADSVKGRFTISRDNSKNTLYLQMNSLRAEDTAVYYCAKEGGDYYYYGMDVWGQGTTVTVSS VL: SYELTQPPSVSVSPGQTASITCSGDKLGDKYVSWYQQKPGQSPVVVIYQDSKRPSGIPERFSGSNSGNTATLTISGTQAMDEAYYYCQAWVSSTVVFGGGTKLTVLG	0.177 mg/L

Asked: Please look up its EC50: C40M103 (antibody, human IgG1, lambda, V domains shown, Variant of C40M18 (VH C40H48, VL C40L69; LCDR1 cysteine mutated); cloned as IgG1) VH: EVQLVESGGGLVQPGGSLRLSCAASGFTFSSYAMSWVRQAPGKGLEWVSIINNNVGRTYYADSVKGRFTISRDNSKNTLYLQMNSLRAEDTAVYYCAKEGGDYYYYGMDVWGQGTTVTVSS VL: SYELTQPPSVSVSPGQTASITCSGDKLGDKYVSWYQQKPGQSPVLVIYQDSKRPSGIPERFSGSNSGNTATLTISGTQAMDEADYYCQAWVSSTVVFGGGTKLTVLG
Given back: 0.112 mg/L
